// provenance: patent US20220064138A1

Tested on: human liver cancer HepG2 cells
experimental_details: Cell proliferation assay (CCK-8)
Type: cell-based
condition_context: HepG2, 72 h
pIC50: −log10 of the molar value.
pIC50 values by entry

As a guide, the following entries are already answered.
compound="Cc1ccccc1/C=C/C(=O)O[C@@H]1C[C@@H]2[C@H](/C=C/CCC[C@H](C)OC(=O)/C=C/[C@H]2OC(=O)/C=C/c2ccccc2C)C1 [Compound 8c, 4,7-O-bis(2-methylcinnamic acid)acyl BFA]" reading="5.00 to 6.00"
compound="COc1cc(/C=C/C(=O)O[C@@H]2C[C@H]3[C@H](O)/C=C/C(=O)O[C@@H](C)CCC/C=C/[C@@H]3C2)cc(OC)c1OC [Compound 11a]" reading="6.00 to 7.00"

Please find the next compound below.
Request - read-out pIC50 | tested on human liver cancer HepG2 cells | compound C[C@H]1CCC/C=C/[C@@H]2C[C@H](OC(=O)/C=C/c3ccccc3Br)C[C@H]2[C@H](O)/C=C/C(=O)O1 [Compound 4a, 7-O-(2-bromocinnamic acid)acyl BFA]
6.00 to 7.00

---

experimental_details: physchem
condition_context: Methanol, 37° C., x ± s, n = 3
quantity_name: solubility at 24 h (mg/mL)
Answer with a number only, understood to be in mg/mL.

Value lookup for solubility at 24 h; key = C[C@H]1CCC/C=C/[C@@H]2C[C@H](OC(=O)/C=C/c3cnc4ccccc4c3)C[C@H]2[C@H](OC(=O)/C=C/c2cnc3ccccc3c2)/C=C/C(=O)O1 [Compound 17c]
20.4

---

Tested on: human lung cancer A549 cells
experimental_details: Cell proliferation assay (CCK-8)
Format: cell-based
condition_context: A549, 72 h
quantity_name: IC50

Value lookup for IC50; key = C[C@H]1CCC/C=C/[C@@H]2C[C@H](OC(=O)/C=C/c3ccccc3F)C[C@H]2[C@H](OC(=O)/C=C/c2ccccc2F)/C=C/C(=O)O1 [Compound 2c, 4,7-O-bis(2-fluorocinnamic acid)acyl BFA]
1 to 10 µM

Repeat for the following compound: Cc1ccc(/C=C/C(=O)O[C@@H]2C[C@H]3[C@H](O)/C=C/C(=O)O[C@@H](C)CCC/C=C/[C@@H]3C2)cc1 [Compound 7a, 7-O-(4-methylcinnamic acid)acyl BFA]
0.1 to 1 µM

Repeat for the following compound: C[C@H]1CCC/C=C/[C@@H]2C[C@H](O)C[C@H]2[C@H](OC(=O)/C=C/c2cccc(F)c2)/C=C/C(=O)O1 [Compound 1b, 4-O-(3-fluorocinnamic acid)acyl BFA]
0.1 to 1 µM

Repeat for the following compound: C[C@H]1CCC/C=C/[C@@H]2C[C@H](OC(=O)/C=C/c3ccc(N(C)C)cc3)C[C@H]2[C@H](O)/C=C/C(=O)O1 [Compound 10a]
0.1 to 1 µM

Repeat for the following compound: C[C@H]1CCC/C=C/[C@@H]2C[C@H](OC(=O)/C=C/c3ccccc3Br)C[C@H]2[C@H](O)/C=C/C(=O)O1 [Compound 4a, 7-O-(2-bromocinnamic acid)acyl BFA]
0.1 to 1 µM

Repeat for the following compound: C[C@H]1CCC/C=C/[C@@H]2C[C@H](OC(=O)/C=C/c3cccc(F)c3)C[C@H]2[C@H](OC(=O)/C=C/c2cccc(F)c2)/C=C/C(=O)O1 [Compound 1c, 4,7-O-bis(3-fluorocinnamic acid)acyl BFA]
1 to 10 µM

Repeat for the following compound: C[C@H]1CCC/C=C/[C@@H]2C[C@H](OC(=O)/C=C/c3ccc4c(c3)OCO4)C[C@H]2C(OC(=O)/C=C/c2ccc3c(c2)OCO3)/C=C/C(=O)O1 (stereo partly shown) [Compound 9c]
1 to 10 µM

---

Tested on: human liver cancer HepG2 cells
experimental_details: Cell proliferation assay (CCK-8)
Assay type: cell-based
condition_context: HepG2, 72 h
IC50 values by entry

As a guide, the following entries are already answered.
compound="C[C@H]1CCC/C=C/[C@@H]2C[C@H](OC(=O)/C=C/c3ccc4c(c3)OCO4)C[C@H]2C(OC(=O)/C=C/c2ccc3c(c2)OCO3)/C=C/C(=O)O1 (stereo partly drawn)" experimental_system="human liver cancer HepG2 cells" quantity_name=IC50 reading="1000 to 10000 nM"
compound=C[C@H]1CCC/C=C/[C@@H]2C[C@H](OC(=O)/C=C/c3cccc(Cl)c3)C[C@H]2[C@H](O)/C=C/C(=O)O1 experimental_system="human liver cancer HepG2 cells" quantity_name=IC50 reading="100 to 1000 nM"

Please find the next compound below.
Value lookup for IC50; key = C[C@H]1CCC/C=C/[C@@H]2C[C@H](O)C[C@H]2[C@H](OC(=O)/C=C/c2cccnc2)/C=C/C(=O)O1 [Compound 16b]
< 100 nM

---

IC50 values by entry
System: human breast cancer MCF7 cells
experimental_details: Cell proliferation assay (CCK-8)
Type: cell-based
condition_context: MCF7, 72 h

Value lookup for IC50; key = C[C@H]1CCC/C=C/[C@@H]2C[C@H](OC(=O)/C=C/c3ccccn3)C[C@H]2[C@H](OC(=O)/C=C/c2ccccn2)/C=C/C(=O)O1 [Compound 15c]
100 to 1000 nM

Repeat for the following molecule: COc1cc(/C=C/C(=O)O[C@@H]2C[C@H]3[C@H](O)/C=C/C(=O)O[C@@H](C)CCC/C=C/[C@@H]3C2)cc(OC)c1OC [Compound 11a]
100 to 1000 nM

Repeat for the following molecule: C[C@H]1CCC/C=C/[C@@H]2C[C@H](OC(=O)/C=C/c3ccncc3)C[C@H]2[C@H](O)/C=C/C(=O)O1 [Compound 14a]
100 to 1000 nM

---

Tested on: pancreatic cancer PANC-1 cells
experimental_details: Cell proliferation assay (CCK-8)
Format: cell-based
condition_context: Homo sapiens, PANC-1, 72 h
Method: CCK-8 method: The CCK-8 method is a highly sensitive, non-radioactive colorimetric assay for the determination of the number of viable cells in cell proliferation or cytotoxicity assays. […] Cells in logarithmic growth phase were inoculated in 96-well plates with 5000 cells/well respectively, and after 24 h of incubation, samples were added (final concentrations as shown in the table), and biplicate wells were set up for each sample. […] The OD value at 450 nm was measured on an plate reader. […]
pIC50: −log10 of the molar value.
pIC50 values by entry

As a guide, the following entries are already answered.
molecule="C[C@H]1CCC/C=C/[C@@H]2C[C@H](O)C[C@H]2[C@H](OC(=O)/C=C/c2ccccc2F)/C=C/C(=O)O1 [Compound 2b, 4-O-(2-fluorocinnamic acid)acyl BFA]" reading="6.00 to 7.00"
molecule="C[C@H]1CCC/C=C/[C@@H]2C[C@H](OC(=O)/C=C/c3ccc(C(F)(F)F)cc3)C[C@H]2[C@H](O)/C=C/C(=O)O1 [Compound 13a]" reading="6.00 to 7.00"
molecule="C[C@H]1CCC/C=C/[C@@H]2C[C@H](OC(=O)/C=C/c3ccccc3F)C[C@H]2[C@H](OC(=O)/C=C/c2ccccc2F)/C=C/C(=O)O1 [Compound 2c, 4,7-O-bis(2-fluorocinnamic acid)acyl BFA]" reading="5.00 to 6.00"

Value lookup for pIC50; key = COc1cc(/C=C/C(=O)O[C@@H]2C[C@H]3[C@H](O)/C=C/C(=O)O[C@@H](C)CCC/C=C/[C@@H]3C2)cc(OC)c1OC [Compound 11a]
6.00 to 7.00

Repeat for the following molecule: COc1cc(/C=C/C(=O)O[C@@H]2/C=C/C(=O)O[C@@H](C)CCC/C=C/[C@@H]3C[C@H](O)C[C@H]32)cc(OC)c1OC [Compound 11b]
6.00 to 7.00

---

System: human lung cancer A549 cells
experimental_details: Cell proliferation assay (CCK-8)
Format: cell-based
condition_context: A549, 72 h
pIC50: −log10 of the molar value.
pIC50 values by entry

compound=Cc1cccc(/C=C/C(=O)O[C@@H]2C[C@H]3[C@H](O)/C=C/C(=O)O[C@@H](C)CCC/C=C/[C@@H]3C2)c1 quantity_name=pIC50 reading="6.00 to 7.00"
compound="C[C@H]1CCC/C=C/[C@@H]2C[C@H](O)C[C@H]2[C@H](OC(=O)/C=C/c2cnc3ccccc3c2)/C=C/C(=O)O1 [Compound 17b]" quantity_name=pIC50 reading="6.00 to 7.00"
compound="C[C@H]1CCC/C=C/[C@@H]2C[C@H](OC(=O)/C=C/c3cccnc3)C[C@H]2[C@H](OC(=O)/C=C/c2cccnc2)/C=C/C(=O)O1 [Compound 16c]" quantity_name=pIC50 reading="6.00 to 7.00"
compound=C[C@H]1CCC/C=C/[C@@H]2C[C@H](OC(=O)/C=C/c3cccc(F)c3)C[C@H]2[C@H](O)/C=C/C(=O)O1 quantity_name=pIC50 reading="6.00 to 7.00"
compound=Cc1ccccc1/C=C/C(=O)O[C@@H]1C[C@@H]2[C@H](/C=C/CCC[C@H](C)OC(=O)/C=C/[C@H]2OC(=O)/C=C/c2ccccc2C)C1 quantity_name=pIC50 reading="5.00 to 6.00"
compound="C[C@H]1CCC/C=C/[C@@H]2C[C@H](OC(=O)/C=C/c3ccc(C(F)(F)F)cc3)C[C@H]2[C@H](O)/C=C/C(=O)O1 [Compound 13a]" quantity_name=pIC50 reading="6.00 to 7.00"

Value lookup for pIC50; key = `C[C@H]1CCC/C=C/[C@@H]2C[C@H](OC(=O)/C=C/c3cccc(Cl)c3)C[C@H]2[C@H](O)/C=C/C(=O)O1`
6.00 to 7.00

Repeat for the following compound: `C[C@H]1CCC/C=C/[C@@H]2C[C@H](OC(=O)/C=C/c3ccccc3F)C[C@H]2[C@H](O)/C=C/C(=O)O1`
6.00 to 7.00

Repeat for the following compound: `C[C@H]1CCC/C=C/[C@@H]2C[C@H](O)C[C@H]2[C@H](OC(=O)/C=C/c2ccc(F)cc2)/C=C/C(=O)O1`
6.00 to 7.00

Repeat for the following compound: `Cc1cccc(/C=C/C(=O)O[C@@H]2C[C@@H]3[C@H](/C=C/CCC[C@H](C)OC(=O)/C=C/[C@H]3OC(=O)/C=C/c3cccc(C)c3)C2)c1`
5.00 to 6.00
